TESTED ON: recombinant human GITR (Cat No. 13643-H08H, Lot No. LC12JA2509, Sino Biological) (human) (UniProt Q9Y5U5)
ASSAY TEXT: SPR Biacore 8K, multi-cycle kinetics, purified IgG captured on Protein A, GITR as analyte
OBSERVATION TYPE: kon (M⁻¹ s⁻¹)

[[record]]
binder = "anti-GITR 51B VH4/VL4 humanized antibody (human IgG1, kappa) (antibody, V domains shown) VH: QVQLVQSGAEVKKPGASVKVSCKTTGYRFTGYWINWVRQPPGKGLEWIGEILPGSGATYYSENFKGKVTITADTSTDTAYMELSSLRSEDTAIYYCARKGGYYAMDYWGQGTLVTVSS VL: EIVLTQSPATLSLSPGERATLSCTASSSVSSSYFHWYQQKPGKAPKLWIYSTSNLQSGVPDRFSGSGSGTDYTLTISSLQAEDVATYYCHLYHRSPRTFGGGTKVEIKR"
observation_type = "kon"
observed_measurement = 590000

